- test-target: Adenosine receptor A3 (Homo sapiens, UniProt P0DMS8)
- Sequence (P0DMS8 whole entry): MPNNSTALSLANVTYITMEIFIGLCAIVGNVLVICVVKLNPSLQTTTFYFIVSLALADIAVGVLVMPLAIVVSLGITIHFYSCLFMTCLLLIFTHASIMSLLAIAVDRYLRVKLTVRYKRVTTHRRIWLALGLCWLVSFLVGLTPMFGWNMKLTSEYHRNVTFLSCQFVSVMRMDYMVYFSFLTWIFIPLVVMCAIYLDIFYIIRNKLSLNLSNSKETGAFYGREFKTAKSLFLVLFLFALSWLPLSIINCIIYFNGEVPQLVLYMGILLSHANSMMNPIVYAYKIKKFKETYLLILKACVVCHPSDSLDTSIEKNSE
endpoint: Ki (nM)
Respond numerically; units are nM and should not be typed.

| smiles-structure | test-target | unit-symbol | Ki |
| --- | --- | --- | --- |
| CCCCn1cc2c(nc(NC(=O)Cc3ccc(-c4ccccc4)cc3)n3nc(-c4ccco4)nc23)n1 | Adenosine receptor A3 (Homo sapiens, UniProt P0DMS8) | nM | 189 |
| Cn1cc2c(nc(NC(=O)Cc3cccs3)n3nc(-c4ccco4)nc23)n1 | Adenosine receptor A3 (Homo sapiens, UniProt P0DMS8) | nM | 5.26 |
| O=C(Cc1cccs1)Nc1nc2nn(CCc3ccccc3)cc2c2nc(-c3ccco3)nn12 | Adenosine receptor A3 (Homo sapiens, UniProt P0DMS8) | nM | 330 |
| O=C(Cc1cccc(Cl)c1)Nc1nc2nn(CCCc3ccccc3)cc2c2nc(-c3ccco3)nn12 | Adenosine receptor A3 (Homo sapiens, UniProt P0DMS8) | nM | 110 |
| O=C(Cc1ccc(-c2ccccc2)cc1)Nc1nc2nn(CCCc3ccccc3)cc2c2nc(-c3ccco3)nn12 | Adenosine receptor A3 (Homo sapiens, UniProt P0DMS8) | nM | 410 |
| CCn1cc2c(nc(NC(=O)Cc3ccc(-c4ccccc4)cc3)n3nc(-c4ccco4)nc23)n1 | Adenosine receptor A3 (Homo sapiens, UniProt P0DMS8) | nM | 14.2 |
| Cn1cc2c(nc(NC(=O)Cc3cccc4ccccc34)n3nc(-c4ccco4)nc23)n1 | Adenosine receptor A3 (Homo sapiens, UniProt P0DMS8) | nM | 3.47 |
| Cn1cc2c(nc(NC(=O)Cc3ccc(-c4ccccc4)cc3)n3nc(-c4ccco4)nc23)n1 | Adenosine receptor A3 (Homo sapiens, UniProt P0DMS8) | nM | 11.2 |

What value of measured Ki is listed for CCCCn1cc2c(nc(NC(=O)Cc3cccc4ccccc34)n3nc(-c4ccco4)nc23)n1 ?
100

What value of measured Ki is listed for Cn1cc2c(nc(NC(=O)COc3ccccc3)n3nc(-c4ccco4)nc23)n1 ?
692

What value of measured Ki is listed for O=C(Cc1cccc2ccccc12)Nc1nc2nn(CCCc3ccccc3)cc2c2nc(-c3ccco3)nn12 ?
343

What value of measured Ki is listed for CC(C)CCn1cc2c(nc(NC(=O)Cc3ccc(F)cc3)n3nc(-c4ccco4)nc23)n1 ?
116

What value of measured Ki is listed for O=C(Cc1c(Cl)cccc1Cl)Nc1nc2nn(CCCc3ccccc3)cc2c2nc(-c3ccco3)nn12 ?
601

What value of measured Ki is listed for CC(C)CCn1cc2c(nc(NC(=O)Cc3cccs3)n3nc(-c4ccco4)nc23)n1 ?
308

What value of measured Ki is listed for CCCCn1cc2c(nc(NC(=O)Cc3cccs3)n3nc(-c4ccco4)nc23)n1 ?
99.8

What value of measured Ki is listed for CC(C)CCn1cc2c(nc(NC(=O)COc3ccc(Cl)cc3)n3nc(-c4ccco4)nc23)n1 ?
2310

What value of measured Ki is listed for C=Cn1cc2c(nc(NC(=O)Nc3ccc(OC)cc3)n3nc(-c4ccco4)nc23)n1 ?
0.48

What value of measured Ki is listed for O=C(Cc1ccc2ccccc2c1)Nc1nc2nn(CCCc3ccccc3)cc2c2nc(-c3ccco3)nn12 ?
717

What value of measured Ki is listed for COc1ccc(CC(=O)Nc2nc3nn(CCCc4ccccc4)cc3c3nc(-c4ccco4)nn23)cc1 ?
120

====

Listed below: pIC50 values for each entry.
- test-target: Adenosine receptor A2b (Homo sapiens)
- Sequence (P29275 whole entry): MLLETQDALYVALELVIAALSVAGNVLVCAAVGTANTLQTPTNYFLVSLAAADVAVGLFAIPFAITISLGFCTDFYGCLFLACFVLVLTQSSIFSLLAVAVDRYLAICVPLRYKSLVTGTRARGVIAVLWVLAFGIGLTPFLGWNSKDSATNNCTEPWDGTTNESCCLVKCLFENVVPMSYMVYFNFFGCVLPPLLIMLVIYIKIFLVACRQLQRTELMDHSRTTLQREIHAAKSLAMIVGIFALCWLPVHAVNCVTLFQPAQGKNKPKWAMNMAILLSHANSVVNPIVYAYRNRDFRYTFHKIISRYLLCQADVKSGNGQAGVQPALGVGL
- experiment-summary: Antagonist activity at human adenosine A2B receptor expressed in CHO cells assessed as inhibition of NECA-induced adenylyl cyclase activity
Please express pIC50 as -log10 of the molar concentration.

| smiles-structure | pIC50 |
| --- | --- |
| CCn1cc2c(nc(NC(=O)Cc3ccsc3)n3nc(-c4ccco4)nc23)n1 | 5.03 |
| CCCCn1cc2c(nc(NC(=O)Cc3cccs3)n3nc(-c4ccco4)nc23)n1 | 5.74 |
| CCn1cc2c(nc(NC(=O)Cc3cccs3)n3nc(-c4ccco4)nc23)n1 | 4.82 |
| CC(C)CCn1cc2c(nc(NC(=O)Cc3cccc(Cl)c3)n3nc(-c4ccco4)nc23)n1 | 5.86 |
| CCCn1cc2c(nc(NC(=O)Cc3ccc4ccccc4c3)n3nc(-c4ccco4)nc23)n1 | 5.27 |

Could you now look at the following compound, please?
What value of measured pIC50 is listed for CC(C)CCn1cc2c(nc(NC(=O)Cc3ccc(-c4ccccc4)cc3)n3nc(-c4ccco4)nc23)n1 ?
5.05

====

Target protein (sequence): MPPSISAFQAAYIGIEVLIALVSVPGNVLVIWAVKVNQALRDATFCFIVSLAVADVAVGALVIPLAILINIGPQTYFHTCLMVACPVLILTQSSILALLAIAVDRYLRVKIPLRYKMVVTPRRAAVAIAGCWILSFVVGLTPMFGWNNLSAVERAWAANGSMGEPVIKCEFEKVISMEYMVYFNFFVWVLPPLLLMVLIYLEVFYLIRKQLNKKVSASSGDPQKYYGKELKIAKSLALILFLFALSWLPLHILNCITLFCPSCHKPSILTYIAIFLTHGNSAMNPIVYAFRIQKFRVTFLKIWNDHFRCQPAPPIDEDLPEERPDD
So basically, if Ki comes in under 200 nM it's condition met, and if it's 200 nM or more it's condition not met.

Look over these answered cases.
| smiles-structure | category-label |
| --- | --- |
| O=C(Cc1ccsc1)Nc1nc2nn(CCc3ccccc3)cc2c2nc(-c3ccco3)nn12 | condition met |
| CCCn1cc2c(nc(NC(=O)Cc3ccc(-c4ccccc4)cc3)n3nc(-c4ccco4)nc23)n1 | condition not met |
| O=C(Nc1nc2nn(CCc3ccccc3)cc2c2nc(-c3ccco3)nn12)C(c1ccccc1)c1ccccc1 | condition met |
| CCn1cc2c(nc(NC(=O)Cc3ccc4ccccc4c3)n3nc(-c4ccco4)nc23)n1 | condition met |
| CCCCn1cc2c(nc(NC(=O)Cc3cccs3)n3nc(-c4ccco4)nc23)n1 | condition met |

Find out if reported Ki for CCCCn1cc2c(nc(NC(=O)Cc3ccsc3)n3nc(-c4ccco4)nc23)n1 is less than 200 nM
condition met

====

- test-target: Adenosine receptor A2b (Homo sapiens)
- experiment-summary: Antagonist activity at human adenosine A2B receptor expressed in CHO cells assessed as inhibition of NECA-induced adenylyl cyclase activity
endpoint: IC50

Consider the following illustrative entries.
| smiles-structure | IC50 |
| --- | --- |
| O=C(Cc1cccs1)Nc1nc2nn(CCc3ccccc3)cc2c2nc(-c3ccco3)nn12 | > 10 µM |
| O=C(Cc1cccc2ccccc12)Nc1nc2nn(CCCc3ccccc3)cc2c2nc(-c3ccco3)nn12 | > 100 µM |
| COc1ccc(CC(=O)Nc2nc3nn(C)cc3c3nc(-c4ccco4)nn23)cc1 | > 10 µM |

Could you now look at the following compound, please?
What value of measured IC50 is listed for O=C(Cc1ccc(F)cc1)Nc1nc2nn(CCCc3ccccc3)cc2c2nc(-c3ccco3)nn12 ?
> 50 µM

====

- test-target: UniProt P29275
- experiment-summary: Antagonist activity at human adenosine A2B receptor expressed in CHO cells assessed as inhibition of NECA-induced adenylyl cyclase activity
endpoint: IC50

Consider the following illustrative entries.
| smiles-structure | IC50 |
| --- | --- |
| CC(C)CCn1cc2c(nc(NC(=O)C(c3ccccc3)c3ccccc3)n3nc(-c4ccco4)nc23)n1 | > 10 µM |
| CCCn1cc2c(nc(NC(=O)Cc3ccc(-c4ccccc4)cc3)n3nc(-c4ccco4)nc23)n1 | > 10 µM |

Could you now look at the following compound, please?
What value of measured IC50 is listed for CCn1cc2c(nc(NC(=O)Cc3ccc(-c4ccccc4)cc3)n3nc(-c4ccco4)nc23)n1 ?
> 50 µM

====

- test-target: Adenosine receptor A3 (Homo sapiens, UniProt P0DMS8)
- Sequence (P0DMS8 whole entry): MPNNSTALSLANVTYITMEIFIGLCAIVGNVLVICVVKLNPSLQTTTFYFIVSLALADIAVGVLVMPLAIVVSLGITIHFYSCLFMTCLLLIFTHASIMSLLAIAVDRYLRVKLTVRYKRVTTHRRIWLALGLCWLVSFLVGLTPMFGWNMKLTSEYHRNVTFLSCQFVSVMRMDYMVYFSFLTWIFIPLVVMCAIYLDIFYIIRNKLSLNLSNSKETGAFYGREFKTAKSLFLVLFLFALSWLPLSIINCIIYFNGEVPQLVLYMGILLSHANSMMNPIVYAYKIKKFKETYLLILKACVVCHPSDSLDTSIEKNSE
endpoint: pKi
Please express pKi as -log10 of the molar concentration.

| smiles-structure | pKi |
| --- | --- |
| O=C(Cc1ccsc1)Nc1nc2nn(CCc3ccccc3)cc2c2nc(-c3ccco3)nn12 | 6.14 |

Could you now look at the following compound, please?
Report pKi for Nc1nc2nn(CCc3c(Br)cc(Br)cc3Br)cc2c2nc(-c3ccco3)nn12 tested on Adenosine receptor A3 (Homo sapiens, UniProt P0DMS8).
5.35
